Just for reference, patent US20260008758A1 is where these values come from.

# Experimental target: DPP1 in HL-60 cells (Homo sapiens (Human), UniProt P53634)
# Experiment summary: DPP1 cell single-point percent inhibition testing (HL-60 cells, H-Gly-Phe-AFC substrate)
# Type: cell-based
# Condition description: read-out: DPP1 cell % inhibition @ 5 nM, 5 nM compound, 100 μM H-Gly-Phe-AFC, 60 min pre-incubation at 37° C.
Outcome measure: inhibition at 0.005 µM

Which inhibition at 0.005 µM is reported for this molecule? CN(C)C[C@](C)(O)C(=O)N[C@H](C#N)Cc1ccc(-c2ccc3c(c2)C2(CC3)CCN(C)CC2)cc1 [Compound 384] ≤ 76.5%

Next: CO[C@@H](CN(C)C)C(=O)N[C@H](C#N)Cc1ccc(-c2cc3c(C)nc(C)cn3c2)cc1F [Compound 316] ≤ 76.5%

---

# Experimental target: human DPP1 enzyme (Homo sapiens (Human), UniProt P53634)
# Sequence (P53634 25-134): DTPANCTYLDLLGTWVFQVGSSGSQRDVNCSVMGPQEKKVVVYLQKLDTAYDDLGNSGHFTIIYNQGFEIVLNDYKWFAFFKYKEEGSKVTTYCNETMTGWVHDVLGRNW
# Sequence (P53634 231-394): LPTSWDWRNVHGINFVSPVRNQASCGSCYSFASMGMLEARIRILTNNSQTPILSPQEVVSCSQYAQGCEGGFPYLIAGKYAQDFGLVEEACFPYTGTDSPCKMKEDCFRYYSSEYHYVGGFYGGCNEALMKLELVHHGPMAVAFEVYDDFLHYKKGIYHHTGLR
# Sequence (P53634 395-463): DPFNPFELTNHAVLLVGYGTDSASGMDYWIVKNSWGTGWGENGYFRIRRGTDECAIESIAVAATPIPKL
# Experiment summary: Human DPP1 enzyme single-point percent inhibition testing (HL-60 lysate, H-Gly-Arg-AMC substrate)
# Format: biochemical
# Condition description: read-out: human DPP1 enzyme % inhibition @ 10 nM, 10 nM compound, 400 μM H-Gly-Arg-AMC, 10 min pre-incubation at 37° C.
# Experimental: A crude lysate of HL-60 cells (ATCC; Manassas, VA) was used as a source of human DPP1 enzyme in the assay. […] Substrate cleavage was measured for 90 minutes at 37° C., with fluorescence at Excitation/Emission 350/450 nm measured every 5 minutes. […] Percent inhibition at 10 nM was calculated for each test article based on remaining DPP1 activity compared to enzyme activity in wells that received only vehicle control.
Known inhibition at 0.01 µM of a selection of compounds

Use the examples below as a reference point.
COCCN(C)CCn1c(=O)oc2ccc(-c3ccc(C[C@@H](C#N)NC(=O)[C@@H](O)CN(C)C)c(F)c3)cc21 [Compound 368]: ≥ 66.7%
CN(C)C[C@H](O)C(=O)N[C@H](C#N)Cc1ccc(-c2ccc3c(c2)C2(CC3)CCN(C)CC2)cc1F [Compound 355]: ≥ 66.7%

GET /values?readout=inhibition at 0.01 µM&item= CN(C)C[C@H](O)C(=O)N[C@H](C#N)Cc1ccc(-c2ccc3c(c2)C2(CCCN(C)C2)C(=O)N3C)cc1F (stereo partly shown) [Compound 356] 40 to 66.7%

What about this compound? CN(C)C[C@](C)(O)C(=O)N[C@H](C#N)Cc1ccc(-c2ccc3c(c2)C2(CC3)CCN(C)CC2)cc1 [Compound 384] ≥ 66.7%

And the next one, CN(C)C[C@H](O)C(=O)NC(C#N)Cc1cc2c(cc1F)-c1cc3c(cc1CO2)oc(=O)n3C (stereo partly shown) [Compound 339] ? ≤ 40%

How about CN(C)CCn1c(=O)oc2ccc(-c3ccc(C[C@@H](C#N)NC(=O)[C@@H](O)CN(C)C)cc3)cc21 [Compound 344] ? 40 to 66.7%

Next up: CO[C@@H](CN(C)C)C(=O)N[C@H](C#N)Cc1ccc(-c2ccc3oc(=O)n(CCN(C)C)c3c2)cc1 [Compound 302] 40 to 66.7%

---

# Experimental target: human DPP1 enzyme (Homo sapiens (Human), UniProt P53634)
# Experiment summary: Human DPP1 enzyme single-point percent inhibition testing (HL-60 lysate, H-Gly-Arg-AMC substrate)
# Type: biochemical
# Condition description: read-out: human DPP1 enzyme % inhibition @ 10 nM, 10 nM compound, 400 μM H-Gly-Arg-AMC, 10 min pre-incubation at 37° C.
Outcome measure: inhibition at 0.01 µM

CO[C@@H](CN(C)C)C(=O)N[C@H](C#N)Cc1ccc(-c2cnc3c(n2)CCCC3)cc1F: ≤ 40%
CN(C)C[C@](C)(O)C(=O)N[C@H](C#N)Cc1ccc(-c2ccc3c(c2)C2(CCCN(C)C2)C(=O)N3C)cc1F (stereo partly shown): ≥ 66.7%
CO[C@@H](CN(C)C)C(=O)N[C@H](C#N)Cc1ccc(-c2ccc3c(n2)CCCN3)cc1F: ≤ 40%

inhibition at 0.01 µM lookup needed for `CN(C)C[C@H](O)C(=O)N[C@H](C#N)Cc1ccc(-c2ccc3c(c2)C2(CN(C)C2)OC3=O)cc1` , thanks. 40 to 66.7%

Request: `CN(C)C[C@H](O)C(=O)N[C@H](C#N)Cc1ccc(-c2ccc(CN3CCN(C)CC3)cc2)cc1` ≤ 40%

Try this compound next: `CN(C)C[C@](C)(O)C(=O)N[C@H](C#N)Cc1ccc(-c2ccc(S(=O)(=O)N3CCC3)cc2)cc1` ≤ 40%

Next entry: `CN(C)C[C@H](O)C(=O)N[C@H](C#N)Cc1cc2c(cc1F)-c1ccc(C#N)cc1CO2` ≤ 40%
